- Format: in vitro ADME
- test-conditions: 1 h, 1 µM
measured-property: Mouse blood plasma stability, intact radiopeptide (%)

{"columns": ["molecule", "value-measured"],
 "data": [
  ["Cc1ccc(CCCC(=O)NCCCCCCCC(=O)NCCCC[C@H](NC(=O)CN2CCN(CC(=O)O)CCN(CC(=O)O)CCN(CC(=O)O)CC2)C(=O)N[C@@H](CC(=O)O)C(=O)N[C@@H](CC2CCCCC2)C(=O)N[C@@H](Cc2ccccc2)C(=O)N[C@H](CO)C(=O)N[C@H](CCCNC(=N)N)C(=O)N[C@@H](Cc2ccc(O)cc2)C(=O)N[C@@H](CC(C)C)C(=O)N[C@@H](Cc2c[nH]c3ccccc23)C(=O)N[C@@H](CO)C(N)=O)cc1 [[^177Lu]Lu-uPAR-12, metal not drawn]", 100],
  ["Cc1ccc(CCCC(=O)NCCOCCOCCOCCOCCC(=O)NCCCC[C@H](NC(=O)CN2CCN(CC(=O)O)CCN(CC(=O)O)CCN(CC(=O)O)CC2)C(=O)N[C@@H](CC(=O)O)C(=O)N[C@@H](CC2CCCCC2)C(=O)N[C@@H](Cc2ccccc2)C(=O)N[C@H](CO)C(=O)N[C@H](CCCNC(=N)N)C(=O)N[C@@H](Cc2ccc(O)cc2)C(=O)N[C@@H](CC(C)C)C(=O)N[C@@H](Cc2c[nH]c3ccccc23)C(=O)N[C@@H](CO)C(N)=O)cc1 [[^177Lu]Lu-uPAR-11, metal not drawn]", 99]
]}

====

- method-description: in vivo
- test-conditions: CD1 nude, mouse, 0.5 nmol/mouse, total radioactivity, Bone uptake
measured-property: tissue uptake at 24 h (%ID/g)

{"columns": ["compound", "value-measured"],
 "data": [
  ["Cc1ccc(CCCC(=O)NCCOCCOCCOCCOCCC(=O)NC[C@H](NC(=O)CN2CCN(CC(=O)O)CCN(CC(=O)O)CCN(CC(=O)O)CC2)C(=O)N[C@@H](CC(=O)O)C(=O)N[C@@H](CC2CCCCC2)C(=O)N[C@@H](Cc2ccccc2)C(=O)N[C@H](CO)C(=O)N[C@H](CCCNC(=N)N)C(=O)N[C@@H](Cc2ccc(O)cc2)C(=O)N[C@@H](CC(C)C)C(=O)N[C@@H](Cc2c[nH]c3ccccc23)C(=O)N[C@@H](CO)C(N)=O)cc1 [[^177Lu]Lu-uPAR-14, metal not drawn]", 0.19],
  ["Cc1ccc(CCCC(=O)NCCOCCOCCOCCOCCOCCC(=O)NCCCC[C@H](NC(=O)CN2CCN(CC(=O)O)CCN(CC(=O)O)CCN(CC(=O)O)CC2)C(=O)N[C@@H](CC(=O)O)C(=O)N[C@@H](CC2CCCCC2)C(=O)N[C@@H](Cc2ccccc2)C(=O)N[C@H](CO)C(=O)N[C@H](CCCNC(=N)N)C(=O)N[C@@H](Cc2ccc(O)cc2)C(=O)N[C@@H](CC(C)C)C(=O)N[C@@H](Cc2c[nH]c3ccccc23)C(=O)N[C@@H](CO)C(N)=O)cc1 [[^177Lu]Lu-uPAR-18, metal not drawn]", 0.19]
]}

====

- method-description: in vivo
- test-conditions: CD1 nude, mouse, 0.5 nmol/mouse, total radioactivity, Heart uptake
measured-property: tissue uptake at 48 h (%ID/g)

{"columns": ["molecule", "measured-property", "units-symbol", "value-measured"],
 "data": [
  ["Cc1ccc(CCCC(=O)NCCOCCOCCOCCOCCC(=O)NCCCC[C@H](NC(=O)CN2CCN(CC(=O)O)CCN(CC(=O)O)CCN(CC(=O)O)CC2)C(=O)N[C@@H](CC(=O)O)C(=O)N[C@@H](CC2CCCCC2)C(=O)N[C@@H](Cc2ccccc2)C(=O)N[C@H](CO)C(=O)N[C@H](CCCNC(=N)N)C(=O)N[C@@H](Cc2ccc(O)cc2)C(=O)N[C@@H](CC(C)C)C(=O)N[C@@H](Cc2c[nH]c3ccccc23)C(=O)N[C@@H](CO)C(N)=O)cc1 [[^177Lu]Lu-uPAR-11, metal not drawn]", "tissue uptake at 48 h", "%ID/g", 0.08]
]}

====

- method-description: in vivo
- test-conditions: CD1 nude, mouse, 0.5 nmol/mouse, total radioactivity, Intestines uptake

{"columns": ["compound", "tissue uptake at 48 h (%ID/g)"],
 "data": [
  ["Cc1ccc(CCCC(=O)NCCOCCOCCOCCOCCC(=O)NCCCC[C@H](NC(=O)CN2CCN(CC(=O)O)CCN(CC(=O)O)CCN(CC(=O)O)CC2)C(=O)N[C@@H](CC(=O)O)C(=O)N[C@@H](CC2CCCCC2)C(=O)N[C@@H](Cc2ccccc2)C(=O)N[C@H](CO)C(=O)N[C@H](CCCNC(=N)N)C(=O)N[C@@H](Cc2ccc(O)cc2)C(=O)N[C@@H](CC(C)C)C(=O)N[C@@H](Cc2c[nH]c3ccccc23)C(=O)N[C@@H](CO)C(N)=O)cc1 [[^177Lu]Lu-uPAR-11, metal not drawn]", 0.14]
]}

====

- method-description: in vivo
- test-conditions: CD1 nude, mouse, 0.5 nmol/mouse, total radioactivity, Stomach uptake
Entries annotated with measured tissue uptake at 24 h

{"columns": ["molecule", "units-symbol", "tissue uptake at 24 h"],
 "data": [
  ["Cc1ccc(CCCC(=O)NCCOCCOCCOCCOCCOCCC(=O)NCCCC[C@H](NC(=O)CN2CCN(CC(=O)O)CCN(CC(=O)O)CCN(CC(=O)O)CC2)C(=O)N[C@@H](CC(=O)O)C(=O)N[C@@H](CC2CCCCC2)C(=O)N[C@@H](Cc2ccccc2)C(=O)N[C@H](CO)C(=O)N[C@H](CCCNC(=N)N)C(=O)N[C@@H](Cc2ccc(O)cc2)C(=O)N[C@@H](CC(C)C)C(=O)N[C@@H](Cc2c[nH]c3ccccc23)C(=O)N[C@@H](CO)C(N)=O)cc1 [[^177Lu]Lu-uPAR-18, metal not drawn]", "%ID/g", 0.11],
  ["Cc1ccc(CCCC(=O)NCCOCCOCCOCCOCCC(=O)NCCCC[C@H](NC(=O)CN2CCN(CC(=O)O)CCN(CC(=O)O)CCN(CC(=O)O)CC2)C(=O)N[C@@H](CC(=O)O)C(=O)N[C@@H](CC2CCCCC2)C(=O)N[C@@H](Cc2ccccc2)C(=O)N[C@H](CO)C(=O)N[C@H](CCCNC(=N)N)C(=O)N[C@@H](Cc2ccc(O)cc2)C(=O)N[C@@H](CC(C)C)C(=O)N[C@@H](Cc2c[nH]c3ccccc23)C(=O)N[C@@H](CO)C(N)=O)cc1 [[^177Lu]Lu-uPAR-11, metal not drawn]", "%ID/g", 0.12],
  ["Cc1ccc(CCCC(=O)NCCOCCOCCOCCC(=O)NCCCC[C@H](NC(=O)CN2CCN(CC(=O)O)CCN(CC(=O)O)CCN(CC(=O)O)CC2)C(=O)N[C@@H](CC(=O)O)C(=O)N[C@@H](CC2CCCCC2)C(=O)N[C@@H](Cc2ccccc2)C(=O)N[C@H](CO)C(=O)N[C@H](CCCNC(=N)N)C(=O)N[C@@H](Cc2ccc(O)cc2)C(=O)N[C@@H](CC(C)C)C(=O)N[C@@H](Cc2c[nH]c3ccccc23)C(=O)N[C@@H](CO)C(N)=O)cc1 [[^177Lu]Lu-uPAR-15, metal not drawn]", "%ID/g", 0.12],
  ["Cc1ccc(CCCC(=O)NCCOCCOCCOCCOCCC(=O)NC[C@H](NC(=O)CN2CCN(CC(=O)O)CCN(CC(=O)O)CCN(CC(=O)O)CC2)C(=O)N[C@@H](CC(=O)O)C(=O)N[C@@H](CC2CCCCC2)C(=O)N[C@@H](Cc2ccccc2)C(=O)N[C@H](CO)C(=O)N[C@H](CCCNC(=N)N)C(=O)N[C@@H](Cc2ccc(O)cc2)C(=O)N[C@@H](CC(C)C)C(=O)N[C@@H](Cc2c[nH]c3ccccc23)C(=O)N[C@@H](CO)C(N)=O)cc1 [[^177Lu]Lu-uPAR-14, metal not drawn]", "%ID/g", 0.16]
]}

====

- method-description: in vivo
- test-conditions: CD1 nude, mouse, 0.5 nmol/mouse, total radioactivity, Bone uptake

{"columns": ["compound", "tissue uptake at 4 h / %ID/g"],
 "data": [
  ["Cc1ccc(CCCC(=O)NCCOCCOCCOCCOCCOCCC(=O)NCCCC[C@H](NC(=O)CN2CCN(CC(=O)O)CCN(CC(=O)O)CCN(CC(=O)O)CC2)C(=O)N[C@@H](CC(=O)O)C(=O)N[C@@H](CC2CCCCC2)C(=O)N[C@@H](Cc2ccccc2)C(=O)N[C@H](CO)C(=O)N[C@H](CCCNC(=N)N)C(=O)N[C@@H](Cc2ccc(O)cc2)C(=O)N[C@@H](CC(C)C)C(=O)N[C@@H](Cc2c[nH]c3ccccc23)C(=O)N[C@@H](CO)C(N)=O)cc1 [[^177Lu]Lu-uPAR-18, metal not drawn]", 0.5],
  ["Cc1ccc(CCCC(=O)NCCOCCOCCOCCOCCC(=O)NC[C@H](NC(=O)CN2CCN(CC(=O)O)CCN(CC(=O)O)CCN(CC(=O)O)CC2)C(=O)N[C@@H](CC(=O)O)C(=O)N[C@@H](CC2CCCCC2)C(=O)N[C@@H](Cc2ccccc2)C(=O)N[C@H](CO)C(=O)N[C@H](CCCNC(=N)N)C(=O)N[C@@H](Cc2ccc(O)cc2)C(=O)N[C@@H](CC(C)C)C(=O)N[C@@H](Cc2c[nH]c3ccccc23)C(=O)N[C@@H](CO)C(N)=O)cc1 [[^177Lu]Lu-uPAR-14, metal not drawn]", 0.66]
]}
